# Test system: IGROV-1
# Protocol Summary: Growth inhibition of human IGROV1 cells after 48 hrs by SRB assay
# Assay type: functional
# Measurement Parameters: IGROV-1, 48 h
# note: boundary value 2000 nM maps to Not fulfilled; GI50 below it maps to Fulfilled

Field: example entries. Status: answers known.
>  <Smiles Structure>
COc1ccc(-c2nc3ncccn3c2/C=C/C(=O)c2cc(OC)c(OC)c(OC)c2)cc1

>  <Category>
Not fulfilled

$$$$
>  <Smiles Structure>
COc1ccc(-c2nc3ccccn3c2/C=C/C(=O)c2cc(OC)c(OC)c(OC)c2)cc1OC

>  <Category>
Not fulfilled

$$$$
>  <Smiles Structure>
COc1ccc(-c2nc3ccccn3c2/C=C/C(=O)c2cc(OC)c(OC)c(OC)c2)cc1

>  <Category>
Not fulfilled

$$$$
>  <Smiles Structure>
COc1ccc(C(=O)/C=C/c2c(C(F)(F)F)nc3ccccn23)cc1OC

>  <Category>
Fulfilled

$$$$

Find out if reported GI50 for COc1cc(C(=O)/C=C/c2c(-c3ccc(F)cc3)nc3ncccn23)cc(OC)c1OC is less than 2000 nM Fulfilled

Find out if reported GI50 for COc1cc(C(=O)/C=C/c2c(-c3cccs3)nc3ccccn23)cc(OC)c1OC is less than 2000 nM Fulfilled

Find out if reported GI50 for COc1cc(C(=O)/C=C/c2c(C(F)(F)F)nc3ccccn23)cc(OC)c1OC is less than 2000 nM Not fulfilled

###

# Protocol Summary: Growth inhibition of human UACC62 cells after 48 hrs by SRB assay
# Assay type: functional
# Measurement Parameters: UACC-62, 48 h
Each entry below carries its reported GI50.
Form entry: enter the amount, then its unit.

>  <Smiles Structure>
COc1cc(C(=O)/C=C/c2c(-c3cccs3)nc3ccccn23)cc(OC)c1OC

>  <GI50>
1610 nM

$$$$
>  <Smiles Structure>
COc1ccc(-c2nc3ccccn3c2/C=C/C(=O)c2cc(OC)c(OC)c(OC)c2)cc1

>  <GI50>
5580 nM

$$$$
>  <Smiles Structure>
COc1ccc(C(=O)/C=C/c2c(C(F)(F)F)nc3ccccn23)cc1OC

>  <GI50>
2220 nM

$$$$
>  <Smiles Structure>
COc1cc(C(=O)/C=C/c2c(C(F)(F)F)nc3ccccn23)cc(OC)c1OC

>  <GI50>
2050 nM

$$$$
>  <Smiles Structure>
COc1ccc(-c2nc3ccccn3c2/C=C/C(=O)c2cc(OC)c(OC)c(OC)c2)cc1OC

>  <GI50>
4860 nM

$$$$
>  <Smiles Structure>
COc1cc(C(=O)/C=C/c2c(-c3ccc(F)cc3)nc3ncccn23)cc(OC)c1OC

>  <GI50>
1740 nM

$$$$

// moving on: another record for GI50
Query (molecule): COc1ccc(-c2nc3ncccn3c2/C=C/C(=O)c2cc(OC)c(OC)c(OC)c2)cc1 ; field requested: GI50 1880 nM

###

# Tested on: HCT-116
# Protocol Summary: Growth inhibition of human HCT116 cells after 48 hrs by SRB assay
# Format: functional
# Measurement Parameters: HCT-116, 48 h
# note: boundary value 2000 nM maps to NOT MET; GI50 below it maps to MET

>  <Smiles Structure>
COc1ccc(C(=O)/C=C/c2c(C(F)(F)F)nc3ccccn23)cc1OC

>  <Category>
MET

$$$$
>  <Smiles Structure>
COc1cc(C(=O)/C=C/c2c(-c3cccs3)nc3ccccn23)cc(OC)c1OC

>  <Category>
MET

$$$$
>  <Smiles Structure>
COc1cc(C(=O)/C=C/c2c(C(F)(F)F)nc3ccccn23)cc(OC)c1OC

>  <Category>
MET

$$$$
>  <Smiles Structure>
COc1cc(C(=O)/C=C/c2c(-c3ccc(F)cc3)nc3ncccn23)cc(OC)c1OC

>  <Category>
MET

$$$$
>  <Smiles Structure>
COc1ccc(-c2nc3ccccn3c2/C=C/C(=O)c2cc(OC)c(OC)c(OC)c2)cc1OC

>  <Category>
NOT MET

$$$$

Find out if reported GI50 for COc1ccc(-c2nc3ccccn3c2/C=C/C(=O)c2cc(OC)c(OC)c(OC)c2)cc1 is less than 2000 nM NOT MET

Find out if reported GI50 for COc1ccc(-c2nc3ncccn3c2/C=C/C(=O)c2cc(OC)c(OC)c(OC)c2)cc1 is less than 2000 nM MET
